Where a name gives a salt, the structure may show the parent alone.
metric: melting point

Example entries and their recorded answers appear below.
| molecule | reported |
| --- | --- |
| O=C1N(Cc2ccccn2)c2ccccc2C12COc1c2ccc2c1OCCO2 (stereo not shown) | 205 to 206 °C |
| O=C1N(Cc2ncccc2C(F)F)c2ccccc2[C@]12COc1cc3c(cc12)OCCO3 | 181 to 182 °C |
| O=C1Nc2ccccc2C12COc1ccc3nonc3c12 (stereo not shown) | > 220 °C |
| COc1cc2c(cc1C)[C@@]1(CO2)C(=O)Nc2ccccc21 | > 250 °C |
| COCCOCCN1C(=O)C2(COc3cc4c(cc32)OCCO4)c2c1ccc1ncsc21 (stereo not shown) | 156 to 158 °C |

Please look at the items below and tell me melting point for each one, in order.
1. CN1CCOc2cc3c(cc21)C1(CO3)C(=O)N(C[C@H]2CCCO2)c2ccccc21.Cl (stereo partly shown)
2. O=C1N(Cc2ccccn2)c2ccccc2[C@@]12COc1cc3c(cc12)CCO3
3. Cc1cc2c(cc1C)C1(CO2)C(=O)Nc2ccccc21 (stereo not shown)
4. CN1C(=O)C2(COc3cc4c(cc32)OCCO4)c2c(C(=O)NC3CC3)cccc21 (stereo not shown)

["> 135 °C (dec.)", "154 to 156 °C", "206 to 207 °C", "127 to 128 °C"]

Please look at the items below and tell me melting point for each one, in order.
1. O=C(O)c1ccc(CN2C(=O)C3(COc4cc5c(cc43)OCCO5)c3ccccc32)o1 (stereo not shown)
2. COc1ccc(CN2C(=O)C3(COc4cc(OC)c(C#N)cc43)c3ccccc32)cc1 (stereo not shown)

1. 192 to 195 °C
2. 207 to 208 °C

Please look at the items below and tell me melting point for each one, in order.
1. CN1C(=O)C2(COc3cc4c(cc32)OCCO4)c2c(C(=O)N3CCCC3)cccc21 (stereo not shown)
2. O=C1N(CC2CN(Cc3ccccc3)CCO2)c2ccccc2C12COc1cc3c(cc12)CCO3 (stereo not shown)
3. O=C1N(Cc2ncccn2)c2ccccc2C12COc1cc3c(cc12)OCCO3 (stereo not shown)
4. O=C1CC[C@@H](CN2C(=O)C3(COc4cc5c(cc43)OCO5)c3ccccc32)N1 (stereo partly shown)
5. CN(C)C(=O)c1cc(CN2C(=O)C3(COc4cc5c(cc43)OCO5)c3ccccc32)oc1C(F)(F)F (stereo not shown)
6. O=C1Nc2cccc(-c3ccoc3)c2[C@@]12COc1cc3c(cc12)OCO3
7. Cc1nc(-c2cccc(CN3C(=O)C4(COc5cc6c(cc54)CCO6)c4ccccc43)c2)no1 (stereo not shown)

["242 to 244 °C", "65 to 70 °C", "278 to 279 °C", "121 to 130 °C", "96 to 98 °C", "229 to 231 °C", "209 to 213 °C"]

Please look at the items below and tell me melting point for each one, in order.
1. O=C1N(Cc2cccnn2)c2ccccc2C12COc1cc3c(cc12)CCO3 (stereo not shown)
2. CC(C)N1CCC(CN2C(=O)C3(COc4cc5c(cc43)CCO5)c3ccccc32)CC1.Cl (stereo not shown)
3. O=C1Nc2cccc(F)c2C12COc1cc3c(cc12)OCCO3 (stereo not shown)
4. CN1C(=O)C2(COc3cc4c(cc32)OCCO4)c2c(Oc3ccc(F)cc3)cccc21 (stereo not shown)
5. Nc1cccc(CN2C(=O)C3(COc4cc5c(cc43)OCCO5)c3ccccc32)n1 (stereo not shown)
6. CN1C(=O)C2(COc3cc4c(cc32)OCCO4)c2c(NS(C)(=O)=O)cccc21 (stereo not shown)
7. O=C1Nc2cc(F)ccc2C12COc1cc3c(cc12)CCO3 (stereo not shown)

["81 to 82 °C", "167 °C (dec.)", "282 to 285 °C", "151 to 153 °C", "240 to 241 °C", "184 to 186 °C", "249 to 251 °C"]

Please look at the items below and tell me melting point for each one, in order.
1. COCCOCCN1C(=O)C2(COc3cc4c(cc32)OCCO4)c2c(OC)ccc(OC)c21 (stereo not shown)
2. N#CCN1C(=O)C2(COc3cc4c(cc32)OCO4)c2ccccc21 (stereo not shown)
3. CN1CCN(CN2C(=O)C3(COc4cc5c(cc43)CCO5)c3ccccc32)CC1 (stereo not shown) (as salt: hydrochloride)
4. O=C1N(Cc2ncccc2C(F)(F)F)c2ccccc2C12COc1c2ccc2c1OCCO2 (stereo not shown)
5. O=C1N(Cc2ccc(-c3noc(C(F)(F)F)n3)cc2)c2ccccc2C12COc1cc3c(cc12)CCO3 (stereo not shown)
6. O=C1N(Cc2ccccn2)c2ccccc2C12COc1cc3c(cc12)OCCO3 (stereo not shown)

["109 to 110 °C", "170 to 172 °C", "181 °C (dec.)", "206 to 207 °C", "178 to 179 °C", "208 to 209 °C"]

Please look at the items below and tell me melting point for each one, in order.
1. CN1C(=O)[C@]2(COc3cc4c(cc32)OCO4)c2c(Br)cccc21
2. N#Cc1cc2c(cc1O)OCC21C(=O)N(C[C@H]2CCCO2)c2ccccc21 (stereo partly shown)
3. CC(C)c1nc(CN2C(=O)C3(COc4cc5c(cc43)OCO5)c3c(Cl)cccc32)no1 (stereo not shown)

1: 226 to 227 °C; 2: 218 to 221 °C; 3: 165 to 167 °C

// provenance: patent US8263606B2
